- PROTOCOL_SUMMARY: Solubility of flumazenil
- Format: physicochemical
- CONDITION_SET: pH 1.2, simulated gastric fluid
OUTCOME_MEASURE: solubility

Task: Which measured solubility value corresponds to `CCOC(=O)c1ncn2c1CN(C)C(=O)c1cc(F)ccc1-2` ?
Output: 3000 µg/mL

---

- PROTOCOL_SUMMARY: Solubility of flumazenil
- Format: physicochemical
- CONDITION_SET: pH 7.5, aqueous buffer; pH of 7.5
OUTCOME_MEASURE: solubility (µg/mL)
One number for each entry, in µg/mL.

Task: Could you tell me which solubility is on file for `CCOC(=O)c1ncn2c1CN(C)C(=O)c1cc(F)ccc1-2` ?
Output: 600

The reported measurements were obtained from patent US20160089379A1.
